Measured PBM binding z-score accompanies every entry in the list below.
System: PPARg:RXRa 30nM:10nM, anti-RXR (NR concentration 30 nM, RXRa partner concentration 10 nM)
assay details: PBM binding z-score (relative to random genomic background probes); higher = stronger binding; sequences stand for … in GC…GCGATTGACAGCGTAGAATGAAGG
Returns: the value as a bare number; no unit string appended.

The examples below pair each entry with its known result.
[ask] Item GCATATAGGTAATTCAAGGTGAAAGTCCGATTGT with PPARg:RXRa 30nM:10nM, anti-RXR (NR concentration 30 nM, RXRa partner concentration 10 nM) - PBM binding z-score?
[reply] 0.0519

[ask] Item CCTACTGGGCCATCAGGTGATTGATATCAACGTT with PPARg:RXRa 30nM:10nM, anti-RXR (NR concentration 30 nM, RXRa partner concentration 10 nM) - PBM binding z-score?
[reply] 0.102

[ask] Item TCATATAGGTAATAGGTGAAAGTCGGTGTGGTAA with PPARg:RXRa 30nM:10nM, anti-RXR (NR concentration 30 nM, RXRa partner concentration 10 nM) - PBM binding z-score?
[reply] 6.19

[ask] Item CGAACTAGGTCACCAGGTCAGTGAAGAGGTTGGA with PPARg:RXRa 30nM:10nM, anti-RXR (NR concentration 30 nM, RXRa partner concentration 10 nM) - PBM binding z-score?
[reply] 5.4

[ask] Item CATACAGGGTCATCTAGGCCAGAGTAGGGACGGC with PPARg:RXRa 30nM:10nM, anti-RXR (NR concentration 30 nM, RXRa partner concentration 10 nM) - PBM binding z-score?
[reply] 2.16

Others:
[ask] Item ATATGTAGGTAACATCCGGGTCATTCAGGCTATG with PPARg:RXRa 30nM:10nM, anti-RXR (NR concentration 30 nM, RXRa partner concentration 10 nM) - PBM binding z-score?
[reply] 1.8

[ask] Item ATCGAAAGGTCGACGAGTTGAGTATACACCGTTT with PPARg:RXRa 30nM:10nM, anti-RXR (NR concentration 30 nM, RXRa partner concentration 10 nM) - PBM binding z-score?
[reply] 1.17

[ask] Item CTATGTAAGTTAAGGGGGTCATTCAGTTTGAAAG with PPARg:RXRa 30nM:10nM, anti-RXR (NR concentration 30 nM, RXRa partner concentration 10 nM) - PBM binding z-score?
[reply] 2.84

Provenance of the data: the supplement of paper PMC6555819
